# Test system: NOMO1
# protocol.text: cell viability relative to DMSO control; higher = less cytotoxic
# reported.conditions: RPMI 5 mM glucose + 10% dialyzed FBS; 48 h; 46.1 µM

compound: Nc1nc(Nc2ccc([S+](N)(=O)[O-])cc2)nn1C(=O)c1c(F)cccc1F
cell viability: 5.65%

compound: NCCCCCC(=O)O
cell viability: 96.4%

compound: Cn1cc(-c2cnn3c(N)c(Br)c([C@@H]4CCCNC4)nc23)cn1
cell viability: 19%

compound: NC1CCC(Nc2nc(Nc3ccc(C(=O)N4CCCCC4)cc3)c3ncn(-c4cccc(F)c4)c3n2)CC1 (stereo unspecified)
cell viability: 123%

compound: Cc1cc(SCc2sc(-c3ccc(C(F)(F)F)cc3)nc2C)ccc1OCC(=O)O
cell viability: 83.1%

compound: CCC[C@@H](C=O)NC(=O)[C@H](CC(C)C)NC(=O)[C@H](CC(C)C)NC(=O)OCc1ccccc1
cell viability: 7.3%

compound: Cc1ccc(NC(=O)c2cccc(N(C)C)c2)cc1NC(=O)c1ccc(O)cc1
cell viability: 107%

compound: CN(C)/[N+]([O-])=N/Oc1cc(ON[N+](=O)N2CCN(C(=O)c3cc(Cc4n[nH]c(=O)c5ccccc45)ccc3F)CC2)c([N+](=O)[O-])cc1[N+](=O)[O-]
cell viability: 120%

compound: C[N]1N=CC2=C1C=C(C(=C2)OC3=CC=C(NC(=O)\C4=C\C=C(\C)N(C4=O)C5=CC=C(F)C=C5)C=C3F)C6=C[NH]N=C6
cell viability: 16.2%

compound: COc1ccc2c(OCc3nnc4ccc(-c5ccccc5)nn34)ccnc2c1
cell viability: 122%

compound: CC[C@H](NC(C)C)[C@H](O)c1ccc(O)c2[nH]c(=O)ccc12
cell viability: 91.2%
